assay: Luminescence activity assay of purified Gaussia luciferase mutants on coelenterazine derivative ZS2; format: biochemical; design: key: ratio of mutant luminescence intensity to wild-type Gaussia luciferase; conditions: Substrate ZS2 (Table 16)
result.type: Activity of mutant relative to wild-type Gaussia luciferase without the signal peptide
Give bare numbers.

- molecule: "F26C N27D A30D A32V S33R A36T: Gaussia luciferase mutant (protein, SIGNAL (1)..(17), Gaussia luciferase mutant) MGVKVLFALICIAVAEAKPTENNEDCDIVDVVRNFTTTDLDADRGKLPGKKLPLEVLKEMEANARKAGCTRGCLICLSHIKCTPKMKKFIPGRCHTYEGDKESAQGGIGEAIVDIPEIPGFKDLEPMEQFIAQVDLCVDCTTGCLKGLANVQCSDLLKKWLPQRCATFASKIQGQVDKIKGAGGD"
  reported: 0.166

Provide reported Activity of mutant relative to wild-type Gaussia luciferase without the signal peptide for each item, in the same order as listed.
1. Q152H Q163D T167S S170N G174K A182L G183N: Gaussia luciferase mutant (protein, SIGNAL (1)..(17), Gaussia luciferase mutant) MGVKVLFALICIAVAEAKPTENNEDFNIVAVASNFATTDLDADRGKLPGKKLPLEVLKEMEANARKAGCTRGCLICLSHIKCTPKMKKFIPGRCHTYEGDKESAQGGIGEAIVDIPEIPGFKDLEPMEQFIAQVDLCVDCTTGCLKGLANVHCSDLLKKWLPDRCASFANKIQKQVDKIKGLNGD
2. K66R E102K E110G D123N V138D: Gaussia luciferase mutant (protein, SIGNAL (1)..(17), Gaussia luciferase mutant) MGVKVLFALICIAVAEAKPTENNEDFNIVAVASNFATTDLDADRGKLPGKKLPLEVLKEMEANARRAGCTRGCLICLSHIKCTPKMKKFIPGRCHTYEGDKKSAQGGIGGAIVDIPEIPGFKNLEPMEQFIAQVDLCDDCTTGCLKGLANVQCSDLLKKWLPQRCATFASKIQGQVDKIKGAGGD

## Output
1. 0.159
2. 1.611
